- Test system: Glutamate NMDA receptor; Grin1/Grin2b (Rattus norvegicus) (UniProt P35439+Q00960)
- Experiment notes: Antagonist activity at rat recombinant NR1/NR2B receptor expressed in Xenopus laevis oocytes assessed as inhibition of glutamate/glycine-induced current at 3 uM by two electrode voltage clamp method relative to control
- Type: functional, cell-based
- Condition details: Oocyte
Would you kindly list % response for each of these compounds?
The reply should be a number in %, with the unit left off.

API: value(readout= % response, system= Glutamate NMDA receptor; Grin1/Grin2b (Rattus norvegicus) (UniProt P35439+Q00960), query= CS(=O)(=O)Nc1ccc(CCC(=O)NC/C=C/c2ccc(Cl)c(Cl)c2)cc1 )
18

API: value(readout= % response, system= Glutamate NMDA receptor; Grin1/Grin2b (Rattus norvegicus) (UniProt P35439+Q00960), query= CS(=O)(=O)Nc1ccc(CCC(=O)NCCCNc2ccc(Cl)c(Cl)c2)cc1 )
12

API: value(readout= % response, system= Glutamate NMDA receptor; Grin1/Grin2b (Rattus norvegicus) (UniProt P35439+Q00960), query= CS(=O)(=O)Nc1ccc(CCC(=O)NCCNc2ccc(Cl)c(Cl)c2)cc1 )
14

API: value(readout= % response, system= Glutamate NMDA receptor; Grin1/Grin2b (Rattus norvegicus) (UniProt P35439+Q00960), query= CS(=O)(=O)Nc1ccc(OCCNCC(=O)Nc2ccc(Cl)c(Cl)c2)cc1 )
21

API: value(readout= % response, system= Glutamate NMDA receptor; Grin1/Grin2b (Rattus norvegicus) (UniProt P35439+Q00960), query= CS(=O)(=O)Nc1ccc(CCC(=O)NNC(=O)c2ccc(Cl)c(Cl)c2)cc1 )
21

API: value(readout= % response, system= Glutamate NMDA receptor; Grin1/Grin2b (Rattus norvegicus) (UniProt P35439+Q00960), query= CS(=O)(=O)Nc1ccc(OCC(=O)NCCCc2ccc(Cl)c(Cl)c2)cc1 )
15

API: value(readout= % response, system= Glutamate NMDA receptor; Grin1/Grin2b (Rattus norvegicus) (UniProt P35439+Q00960), query= CS(=O)(=O)Nc1ccc(OCC(=O)NCCNc2ccc(Cl)c(Cl)c2)cc1 )
16

API: value(readout= % response, system= Glutamate NMDA receptor; Grin1/Grin2b (Rattus norvegicus) (UniProt P35439+Q00960), query= CS(=O)(=O)Nc1ccc(OCC(=O)NCCCNc2ccc(Cl)c(Cl)c2)cc1 )
12

API: value(readout= % response, system= Glutamate NMDA receptor; Grin1/Grin2b (Rattus norvegicus) (UniProt P35439+Q00960), query= CS(=O)(=O)Nc1ccc(CCCC(=O)NCCc2ccc(Cl)c(Cl)c2)cc1 )
62

API: value(readout= % response, system= Glutamate NMDA receptor; Grin1/Grin2b (Rattus norvegicus) (UniProt P35439+Q00960), query= CS(=O)(=O)Nc1ccc(OCCNCCNc2ccc(Cl)c(Cl)c2)cc1 )
17

API: value(readout= % response, system= Glutamate NMDA receptor; Grin1/Grin2b (Rattus norvegicus) (UniProt P35439+Q00960), query= CS(=O)(=O)Nc1ccc(OCC(=O)NCCOc2ccc(Cl)c(Cl)c2)cc1 )
21

API: value(readout= % response, system= Glutamate NMDA receptor; Grin1/Grin2b (Rattus norvegicus) (UniProt P35439+Q00960), query= CS(=O)(=O)Nc1ccc(CCCNCCNc2ccc(Cl)c(Cl)c2)cc1 )
21
